Test system: HEK-293T
assay info: Multiplex assay against HEK293T
Assay type: toxicity, cell-based
assay setup: human, 24 h, 1 µM, compound concentration 1 uM, replicate 2
readout name: Population Apoptotic (%)
Write down the value, and be sure its unit follows.

Worked cases, answers included:
CC(=O)Nc1cccc2c1c(Sc1ccc(Cl)cc1)c(C)n2CC(=O)O [AZD1981] ... 54%
Cc1cnc(-c2cc(N3CCN(C(=O)CCS(C)(=O)=O)CC3)ncc2Cl)c(C)c1 ... 40%
Br.CS(=O)(=O)Nc1c(O)ccc2c1CCCC2C1=NCCN1 (stereo not given) ... 55%

Lookup: Given the compound Cc1onc(-c2ccccc2Cl)c1C(=O)N(C)c1ccc(Cl)cc1 , write its reported Population Apoptotic (%).
Found: 42%

Lookup: Output Population Apoptotic (%) of Cl.NCCc1ccc(O)c(O)c1 [DOPAMINE HYDROCHLORIDE]
Found: 20%

* * *

Test system: Fibroblast
assay info: Multiplex assay against human fibroblast
Format: toxicity, cell-based
assay setup: 12 h, 1 µM, compound concentration 1 uM, replicate 2
readout name: Population Tubulin-Different-Phenotype (%)
Quick note: give the figure in %, leave out the unit.

Answered cases to consult:
Cc1onc(-c2ccccc2Cl)c1C(=O)N(C)c1ccc(Cl)cc1 ... 63
CC(C)COc1ccc(CNC(=O)N(Cc2ccc(F)cc2)C2CCN(C)CC2)cc1 [PIMAVANSERIN] ... 82
CC(C)c1noc(N2CCC(COc3ccc(-c4ccc(S(C)(=O)=O)cc4)nc3)CC2)n1 [GSK-1292263] ... 41
Cc1sc2c(c1C)C(c1ccc(Cl)cc1)=N[C@@H](CC(=O)NCCCCCCCCNC(=O)COc1cccc3c1C(=O)N(C1CCC(=O)NC1=O)C3=O)c1nnc(C)n1-2 (stereo partly drawn) ... 66
CCCCC1=NC2(CCCC2)C(=O)N1Cc1ccc(-c2ccccc2-c2nnn[nH]2)cc1 [IRBESARTAN] ... 43

Lookup: Recall and state the measured Population Tubulin-Different-Phenotype (%) for Cc1c(CC(=O)O)c2cccnc2n1Cc1ccc(S(C)(=O)=O)cc1C(F)(F)F [FEVIPIPRANT] .
Found: 56

Lookup: Retrieve Population Tubulin-Different-Phenotype (%) measured for Cc1cccc(NC(=O)CN2CCC(c3ccccn3)CC2)c1.Cl.Cl and print it.
Found: 35

Lookup: Query Population Tubulin-Different-Phenotype (%) for O=C(CCCc1ccccc1)Nc1nc2ccccc2c(=O)s1
Found: 35

* * *

Test system: HEK-293T
assay info: Multiplex assay against HEK293T
Format: toxicity, cell-based
assay setup: human, 24 h, 1 µM, compound concentration 1 uM, replicate 2
Decision: Population Hoechst High Intensity Objects (%) compared against 7%; not below it gives condition met, below it gives condition not met.

COC[C@@H](c1ccc(C(F)(F)F)cc1)N1CCN(C2(C)CCN(C(=O)c3c(C)ncnc3C)CC2)C[C@@H]1C.O=C(O)/C=C\C(=O)O [VICRIVIROC MALEATE] ... condition not met
CC(=O)Nc1cccc2c1c(Sc1ccc(Cl)cc1)c(C)n2CC(=O)O ... condition met
CCCCC(=O)N(Cc1ccc(-c2ccccc2-c2nnn[nH]2)cc1)[C@H](C(=O)O)C(C)C ... condition not met
Cc1sc2c(c1C)C(c1ccc(Cl)cc1)=N[C@@H](CC(=O)NCCCCCCCCNC(=O)COc1cccc3c1C(=O)N(C1CCC(=O)NC1=O)C3=O)c1nnc(C)n1-2 (stereo partly drawn) ... condition met
Br.CS(=O)(=O)Nc1c(O)ccc2c1CCCC2C1=NCCN1 (stereo not drawn) ... condition met

Kindly consider the entry below.
Lookup: Is it the case that N#Cc1c(Oc2cccc(OS(=O)(=O)CCCC(F)(F)F)c2)cccc1C(F)(F)F has Population Hoechst High Intensity Objects (%) reaching or exceeding 7%?
Found: condition met
